Cited source: PubChem BioAssay (NCI)

test system: MDA-MB-435; assay: NCI tumour cell line growth inhibition, 48 h
Readout Kind: TGI

Problem: # lookup: TGI of COc1cc2c(cc1C)NC(=O)/C2=C\c1ccc(Oc2ccccc2)cc1
Solution: 38.1 µM

Problem: What do we get for CC1=C(C(=O)NNC(=O)C[N+](C)(C)C)CC(C(=O)NNC(=O)C[N+](C)(C)C)=C(C)N1 ?
Solution: > 100 µM

Problem: What do we get for COC(=O)C1=C(O)C(C(=O)OC)[C@@]2(O)[C@@H](C(=O)OC)[C@H](C)C[C@@H]1[C@@H]2C(=O)OC (stereo partly specified) ?
Solution: 32.1 µM

Problem: What do we get for O=C(OC1OC2COC(=O)c3cc(O)c(O)c(O)c3-c3c(cc(O)c(O)c3O)C(=O)OC3C2OC(=O)[C@@]24CC(=O)[C@@](O)(OC25C(=O)O[C@H]2[C@@H](O)CO[C@@]25O)C2(O)Oc5c(O)c(O)cc(c5C24)C(=O)OC13)c1cc(O)c(O)c(O)c1 (stereo partly specified) ?
Solution: 33 µM

Problem: What do we get for C=C1CC[C@@H]2[C@](C)(COC(=O)CCC(=O)OC)CCC[C@@]2(C)[C@@H]1CCC1=CC(=O)OC1 ?
Solution: > 100 µM

Problem: What do we get for CC[C@]12C=CCN3CC[C@@]4(c5ccc(OC)cc5N(C)[C@H]4[C@@](O)(C(=O)OC)[C@@H]1OC(=O)CCCN1CCN(CCCC(=O)O[C@@H]4[C@]5(CC)C=CCN6CC[C@@]7(c8ccc(OC)cc8N(C)[C@H]7[C@@]4(O)C(=O)OC)[C@@H]65)CC1)[C@@H]32 ?
Solution: 2.63 µM

----------
system: PC-3 prostate; assay: NCI tumour cell line growth inhibition, 48 h
Let's look at some molecules and their measured TGI.

Below are worked cases with known answers.
Molecule: CC1=C(C(=O)Nc2ccc3[nH]ncc3c2)C(c2ccc(F)cc2)N=C(c2ccc(C(F)(F)F)nc2)N1 (stereo not given)
Readout Kind: TGI
Measured Result: > 25 µM
//
Molecule: CC(C)(C)OC(=O)/N=C/c1c(O)c2ccccc2oc1=O
Readout Kind: TGI
Measured Result: > 100 µM

Problem: API: value(readout=TGI, system=PC-3 prostate) for record CN(/N=C/c1ccccn1)C1=NCCN1
Solution: > 100 µM

Problem: What do we get for COC(=O)C(C)NP(=O)(OCc1cccc(Cn2cnc3c(N)ncnc32)c1)Oc1ccccc1 (stereo not given) ?
Solution: > 100 µM

Problem: What do we get for Nc1cc(C(F)(F)F)c(-c2nc(N3CCOCC3)nc(N3CCOCC3)n2)cn1 ?
Solution: > 100 µM

----------
test system: NCI-H522 lung; test: NCI tumour cell line growth inhibition, 48 h
Readout Kind: TGI

Compound: O=C1NC(c2ccccc2Cl)Nc2ccccc21 (centres undefined)
Measured Result: 72.1 µM
//
Compound: CCCCCCCCCCCCCCCCOP(=O)([O-])OCC[N+](C)(C)C1CC(C)(C)N(O)C(C)(C)C1
Measured Result: > 100 µM
//
Compound: N/C(CCSCCSCC/C(N)=N\O)=N\O
Measured Result: > 100 µM

Problem: API: value(readout=TGI, system=NCI-H522 lung) for record N#CC1(CCCCl)CCCCC1
Solution: > 100 µM

Problem: What do we get for NS(=O)(=O)c1c(O)c2ccccc2oc1=O ?
Solution: > 100 µM

Problem: What do we get for O=S(=O)(Nc1ccccc1)c1ccc(C2CC3(Cl)C(Cl)=C(Cl)C2(Cl)C3(Cl)Cl)cc1 (centres undefined) ?
Solution: 5.67 µM

Problem: What do we get for COc1ccc(OC/C(N)=N/NC(=O)c2ccncc2)cc1 ?
Solution: > 100 µM

Problem: What do we get for NS(=O)(=O)c1cc2c(cc1Cl)NCNS2(=O)=O ?
Solution: > 100 µM

Problem: What do we get for Cc1ccc2c(c1C)CC1(Cc3ccc(C)c(C)c3C1=O)C2=O (centres undefined) ?
Solution: > 100 µM

----------
test system: CAKI-1 renal; experiment: NCI tumour cell line growth inhibition, 48 h
Let's look at some compounds and their measured TGI.

Compound: CCOC(=O)c1cn(-c2ccc([N+](=O)[O-])cc2)c(=S)n2c1nc1ccccc12
TGI: > 100 µM

Compound: CC(C)=CCC[C@@H](C)C1=C(N)C(O)=C(C)C(=O)C1=O
TGI: > 75 µM

Compound: CN(CC(=O)Nc1ccccc1C(=O)O)c1ccccc1
TGI: > 100 µM

Compound: CCN1CCN(CC(=O)Nc2nc3ccc(NCc4ccc(Br)cc4)cc3s2)CC1
TGI: 4.55 µM

Compound: COc1cc2c(cc1OCCN1CCN(CCN3C(=O)c4cccc5cccc(c45)C3=O)CC1)N=C[C@@H]1CCCN1C2=O
TGI: 30.2 µM

Now look at this one.
Problem: # lookup: TGI of CN(C)c1ccc(/C=c2/sc3nc(=O)c(-c4ccccc4NC(=O)C(F)(F)F)nn3c2=O)cc1
Solution: > 100 µM

----------
tested on: SK-MEL-28 melanoma; assay: NCI tumour cell line growth inhibition, 48 h; in the data active means GI50 below about 0.43 µM; inactive means the rest
Answer with one of the outcomes given here: active, inactive

Input Smiles: O=C(O)c1cn(C2CC2)c2cc(N3CCN(C(=O)N(c4ccccc4)c4nc(-c5ccccc5)cs4)CC3)c(F)cc2c1=O
Label Value: inactive

Input Smiles: C#CCCCCCC(=O)N[C@H]1C=C[C@@H]2/C=C(C)/C=C/[C@@H](C)[C@H]([C@H](C)[C@H](O)[C@@H](C)NC(C)=O)OC(=O)/C=C/C=C(C)\C=C\[C@]2(C)C1
Label Value: active

Input Smiles: OCc1ccc(N2CCc3ccc(F)cc3C2)cc1Cl
Label Value: inactive

Input Smiles: O=C1NC(=NCc2cccs2)O/C1=C\c1ccc2ncccc2c1
Label Value: inactive

Input Smiles: CC(=O)O[C@H]([C@H](OC(C)=O)[C@H](C)OC(C)=O)[C@@H](/C=C/[C@H]1CC=CC(=O)O1)OC(C)=O
Label Value: inactive

Input Smiles: COc1ccc(-c2c(Nc3ccccn3)nc3c(C4=CCCCC4)c(-c4ccccc4)[nH]n3c2=O)cc1
Label Value: inactive

Input Smiles: O=C(NO)c1ccc(CNc2cccc3nc(C4CC4)n(-c4ccccc4)c(=O)c23)cc1
Label Value: inactive

Problem: Hi team, can someone confirm the assay call for Cc1ccc(-c2nc([P+](c3ccccc3)(c3ccccc3)c3ccccc3)c(N3CCOCC3)o2)cc1 ?
Solution: inactive

----------
Let's look at some molecules and their measured TGI.
test system: HOP-62 NSCLC; experiment: NCI tumour cell line growth inhibition, 48 h

Input Smiles: CC[C@@H]1CC[C@@H]2[C@H](CC[C@]3(C)[C@@H](O[N+](=O)[O-])CC[C@@H]23)[C@H]1C(C)=O
TGI: > 100 µM

Input Smiles: O=C(Nc1ccc(Cl)cc1Cl)C1C(=O)OC2(CCCCC2)OC1=O
TGI: 17.3 µM

Input Smiles: O=c1c(Oc2ccc(F)cc2F)cc2cnc(NC3CCOCC3)nc2n1C1CC1
TGI: > 25 µM

Input Smiles: CN(C)c1ccc(/C=c2/sc3nc(=O)c(-c4ccccc4NC(=O)C(F)(F)F)nn3c2=O)cc1
TGI: > 100 µM

Input Smiles: CCc1nc(N)nc(N)c1-c1ccc(N2CCOCC2)c(N=[N+]=[N-])c1
TGI: > 100 µM

Input Smiles: COc1ccc(/C=C2\C[C@H]3[C@@H]4CC=C5C[C@@H](O)CC[C@]5(C)[C@H]4CC[C@]3(C)\C2=N\O)cc1
TGI: > 100 µM

Input Smiles: Cc1nc2ccc(N=Nc3c(C)noc3C)cc2[nH]1
TGI: > 100 µM

Input Smiles: FC(F)(F)c1cccc(CNC2CCN(CCc3ccccc3)CC2)c1
TGI: > 100 µM

Problem: # lookup: TGI of CCOC(=O)c1c(C)n(-c2ccc(C)cc2)c(=O)c2ccccc2c(=O)c2c(=O)ccc(=O)c1=2
Solution: 46 µM

----------
test system: NCI/ADR-RES ovarian; assay: NCI tumour cell line growth inhibition, 48 h
Let's look at some compounds and their measured GI50.

Compound: O=C(NO)c1ccc(CNc2cccc3nc(C4CC4)n(-c4ccccc4)c(=O)c23)cc1
Measured Result: 1.28 µM
//
Compound: CCOC(=O)C#Cc1c(C(=O)OCC)nnn1[C@@H]1O[C@H](COC)[C@@H](OC)[C@H]1OC
Measured Result: 15.9 µM
//
Compound: C=CCN(CC=C)Cc1c[nH]c2ccccc12
Measured Result: 18.3 µM
//
Compound: Oc1c(Br)cc(Cl)cc1C(c1cc(Cl)cc(Br)c1O)C(Cl)(Cl)Cl
Measured Result: 2.48 µM
//
Compound: CC[C@]12C=CCN3CC[C@@]4(c5ccc(OC)cc5N(C)[C@H]4[C@@](O)(C(=O)OC)[C@@H]1OC(=O)CCCN1CCN(CCCC(=O)O[C@@H]4[C@]5(CC)C=CCN6CC[C@@]7(c8ccc(OC)cc8N(C)[C@H]7[C@@]4(O)C(=O)OC)[C@@H]65)CC1)[C@@H]32
Measured Result: 1.45 µM

Problem: # lookup: GI50 of O=C1NC(=O)C2C3C=CC(C12)C1C2C(=O)NC(=O)C2C31 (configuration not stated)
Solution: > 1000 µM

Problem: What do we get for OCc1ccc(N2CCc3ccc(F)cc3C2)cc1Cl ?
Solution: 5.22 µM

Problem: What do we get for COc1ccc(-n2c(=O)c3ccccc3n(Cc3ccc(C(=O)NO)cc3)c2=O)cc1 ?
Solution: 18.2 µM

Problem: What do we get for CC(=O)O[C@H]([C@H](OC(C)=O)[C@H](C)OC(C)=O)[C@@H](/C=C/[C@H]1CC=CC(=O)O1)OC(C)=O ?
Solution: > 100 µM

Problem: What do we get for O=C1NC(=O)N(S(=O)(=O)c2cc(C(=O)Nc3ccc(Cl)cc3)c(Cl)cc2S)S(=O)(=O)N1 ?
Solution: 28.1 µM

Problem: What do we get for CN(C)c1ccc(/C=N/N=C(\C#N)[S][Sn]([Cl])([c]2ccccc2)[c]2ccccc2)cc1 ?
Solution: 2.01 µM

Problem: What do we get for N#C[Se]CCN1C(=O)c2ccccc2C1=O ?
Solution: 1.87 µM

Problem: What do we get for COc1cc2c(Oc3ccc(-c4cnc(Nc5ccc(F)cc5)n(C)c4=O)cc3F)ccnc2cc1OCCCN1CCOCC1 ?
Solution: 1.94 µM

Problem: What do we get for CCOC(=O)c1c(Cl)c2c(n1Cc1ccccc1)-c1oncc1CCC2 ?
Solution: 2.83 µM
